# Test system: HeLa Kyoto
# experiment.description: solubility change mitosis vs G1/S (difference of NP-40 vs SDS log2 ratios) (log2 ratio difference); higher = more soluble in mitosis
Listing of entries alongside the reported solubility change mitosis (log2).
Respond using a number only.

residue.sequence	solubility change mitosis (log2)
MSSIKHLVYAVIRFLREQSQMDTYTSDEQESLEVAIQCLETVFKISPEDTHLAVSQPLTEMFTSSFCKNDVLPLSNSVPEDVGKADQLKDEGNNHMKEENYAAAVDCYTQAIELDPNNAVYYCNRAAAQSKLGHYTDAIKDCEKAIAIDSKYSKAYGRMGLALTALNKFEEAVTSYQKALDLDPENDSYKSNLKIAEQKLREVSSPTGTGLSFDMASLINNPAFISMAASLMQNPQVQQLMSGMMTNAIGGPAAGVGGLTDLSSLIQAGQQFAQQIQQQNPELIEQLRNHIRSRSFSSSAEEHS [SGTB]	0.321

For METRYNLKSPAVKRLMKEAAELKDPTDHYHAQPLEDNLFEWHFTVRGPPDSDFDGGVYHGRIVLPPEYPMKPPSIILLTANGRFEVGKKICLSISGHHPETWQPSWSIRTALLAIIGFMPTKGEGAIGSLDYTPEERRALAKKSQDFCCEGCGSAMKDVLLPLKSGSDSSQADQEAKELARQISFKAEVNSSGKTISESDLNHSFSLTDLQDDIPTTFQGATASTSYGLQNSSAASFHQPTQPVAKNTSMSPRQRRAQQQSQRRLSTSPDVIQGHQPRDNHTDHGGSAVLIVILTLALAALIFRRIYLANEYIFDFEL [UBE2J1] the sequence record lists solubility change mitosis (log2) as 0.00691

For MSKKKGLSAEEKRTRMMEIFSETKDVFQLKDLEKIAPKEKGITAMSVKEVLQSLVDDGMVDCERIGTSNYYWAFPSKALHARKHKLEVLESQLSEGSQKHASLQKSIEKAKIGRCETEERTRLAKELSSLRDQREQLKAEVEKYKDCDPQVVEEIRQANKVAKEAANRWTDNIFAIKSWAKRKFGFEENKIDRTFGIPEDFDYID [MND1] the sequence record lists solubility change mitosis (log2) as -0.05

* * *

# Tested on: HeLa Kyoto
# experiment.description: melting temperature (median over replicates), in situ; higher = more thermally stable
# test.conditions: cell cycle stage: G1/S
Listing of entries alongside the reported melting temperature.
Hi! Could you send only the number? It should be in °C, unit omitted.

Previously resolved entries follow.
residue.sequence	melting temperature [°C]
MASTSRLDALPRVTCPNHPDAILVEDYRAGDMICPECGLVVGDRVIDVGSEWRTFSNDKATKDPSRVGDSQNPLLSDGDLSTMIGKGTGAASFDEFGNSKYQNRRTMSSSDRAMMNAFKEITTMADRINLPRNIVDRTNNLFKQVYEQKSLKGRANDAIASACLYIACRQEGVPRTFKEICAVSRISKKEIGRCFKLILKALETSVDLITTGDFMSRFCSNLCLPKQVQMAATHIARKAVELDLVPGRSPISVAAAAIYMASQASAEKRTQKEIGDIAGVADVTIRQSYRLIYPRAPDLFPTDFKFDTPVDKLPQL [GTF2B]	49.7
MFAKGKGSAVPSDGQAREKLALYVYEYLLHVGAQKSAQTFLSEIRWEKNITLGEPPGFLHSWWCVFWDLYCAAPERRDTCEHSSEAKAFHDYSAAAAPSPVLGNIPPNDGMPGGPIPPGFFQGPPGSQPSPHAQPPPHNPSSMMGPHSQPFMSPRYAGGPRPPIRMGNQPPGGVPGTQPLLPNSMDPTRQQGHPNMGGSMQRMNPPRGMGPMGPGPQNYGSGMRPPPNSLGPAMPGINMGPGAGRPWPNPNSANSIPYSSSSPGTYVGPPGGGGPPGTPIMPSPADSTNSSDNIYTMINPVPPGGSRSNFPMGPGSDGPMGGMGGMEPHHMNGSLGSGDIDGLPKNSPNNISGISNPPGTPRDDGELGGNFLHSFQNDNYSPSMTMSV [SSBP3]	52.4
MAAGTSSYWEDLRKQARQLENELDLKLVSFSKLCTSYSHSSTRDGRRDRYSSDTTPLLNGSSQDRMFETMAIEIEQLLARLTGVNDKMAEYTNSAGVPSLNAALMHTLQRHRDILQDYTHEFHKTKANFMAIRERENLMGSVRKDIESYKSGSGVNNRRTELFLKEHDHLRNSDRLIEETISIAMATKENMTSQRGMLKSIHSKMNTLANRFPAVNSLIQRINLRKRRDSLILGGVIGICTILLLLYAFH [GOSR1]	54.7

For METVISSDSSPAVENEHPQETPESNNSVYTSFMKSHRCYDLIPTSSKLVVFDTSLQVKKAFFALVTNGVRAAPLWDSKKQSFVGMLTITDFINILHRYYKSALVQIYELEEHKIETWREVYLQDSFKPLVCISPNASLFDAVSSLIRNKIHRLPVIDPESGNTLYILTHKRILKFLKLFITEFPKPEFMSKSLEELQIGTYANIAMVRTTTPVYVALGIFVQHRVSALPVVDEKGRVVDIYSKFDVINLAAEKTYNNLDVSVTKALQHRSHYFEGVLKCYLHETLETIINRLVEAEVHRLVVVDENDVVKGIVSLSDILQALVLTGGEKKP [PRKAG1] the sequence record lists melting temperature as 50.7

For MAPRALPGSAVLAAAVFVGGAVSSPLVAPDNGSSRTLHSRTETTPSPSNDTGNGHPEYIAYALVPVFFIMGLFGVLICHLLKKKGYRCTTEAEQDIEEEKVEKIELNDSVNENSDTVGQIVHYIMKNEANADVLKAMVADNSLYDPESPVTPSTPGSPPVSPGPLSPGGTPGKHVCGHHLHTVGGVVERDVCHRCRHKRWHFIKPTNKSRESRPRRQGEVTVLSVGRFRVTKVEHKSNQKERRSLMSVSGAETVNGEVPATPVKRERSGTE [RELL1] the sequence record lists melting temperature as 54.7
